System: acetylation of the histone H3 Lysine 14 marker in U2OS cells
TEST_DESCRIPTION: Histone H3 Lysine 14 Acetylation Biomarker Assay
Assay type: cell-based
CONDITION_NOTES: Homo sapiens, serum free medium, 24 hours incubation, read-out: IC50, inhibition of histone H3 Lysine 14 acetylation
EXPERIMENTAL_READOUT: IC50 (nM)
Give just the number in nM; leave the unit off.

Some molecules with known IC50 results, for comparison:
MOLECULE	ASSAY_TARGET	EXPERIMENTAL_READOUT	OBSERVED_RESULT
CCOCc1cc(OC)c2c(NS(=O)(=O)c3c(OC)cccc3OC)noc2c1 [Example 172]	acetylation of the histone H3 Lysine 14 marker in U2OS cells	IC50	1450
COc1cccc(OC)c1S(=O)(=O)Nc1noc2cc(-c3ncco3)c(C)cc12 [Example 102]	acetylation of the histone H3 Lysine 14 marker in U2OS cells	IC50	3690
COc1cccc(OC)c1S(=O)(=O)Nc1noc2cc(Br)cc(OC)c12 [Example 89]	acetylation of the histone H3 Lysine 14 marker in U2OS cells	IC50	3960

Lookup: Which value of IC50 has been reported for COCc1cc(OC)c2c(NS(=O)(=O)c3c(O)cccc3OC)noc2c1 [Example 163] in the records?
Found: 20400

Lookup: Requested field: IC50. Item: COc1ccc(S(=O)(=O)Nc2noc3cc(Br)c(C)cc23)c(OC)c1 [Example 171]
Found: 2570
